# assay_name: mitochondrial membrane potential change in A549 cells, profiling panel, cell-based, JC-1 fluorescence, basal, 24 h, 100 nL (AID 1138);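 further: A549 lung adenocarcinoma cells under basal conditions with no added stimulus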
# test_parameters: higher = more signal
Binary classification by z-score, with -0.2 as an inclusive lower bound for true; all other cases are false.

Recorded results for 4 compounds are shown here.
compound: COCCOC(=O)N1C(=O)[C@@]2(c3cc(C#CCNC(N)=O)ccc31)[C@H](C(=O)N1CCN(c3ncccn3)CC1)[C@H]1C(=O)O[C@H](c3ccccc3)[C@H](c3ccccc3)N1[C@@H]2c1ccc(OCCO)cc1
group_label: false

compound: C=CCNC(=O)[C@@H]1[C@H]2C(=O)O[C@H](c3ccccc3)[C@H](c3ccccc3)N2[C@H](c2ccc(O)cc2)[C@@]12C(=O)N(C(=O)OCCOC)c1ccc(C#CCNC(N)=O)cc12
group_label: false

compound: CCS[C@H]1[C@@H](C(=O)O)[C@H](c2ccc(C)cc2)N(S(=O)(=O)c2ccc(C)cc2)[C@@H]1CC
group_label: false

compound: CCCC#C[Si](O[C@H](CC)c1cn(Cc2cccc(Cl)c2)nn1)(C(C)C)C(C)C
group_label: false

Quick check: does C=C(C)[C@@H]1CC=C(C(O)C2C=CC3C(=O)N(C)C(=O)C3N2Nc2ccccc2)CC1 (some centres undefined) have z-score greater than or equal to -0.2?
true

Quick check: does COc1ccc(C#Cc2ccc3c(c2)[C@]2(C(=O)N3)[C@H](C(=O)NC[C@H](O)c3ccccc3)[C@H]3C(=O)O[C@H](c4ccccc4)[C@H](c4ccccc4)N3[C@@H]2c2ccc(O)cc2)cc1 have z-score greater than or equal to -0.2?
false

Quick check: does COc1cc(NN2C(C(O)c3ccco3)C=CC3C(=O)N(c4ccccc4)C(=O)C32)cc(OC)c1OC (centres undefined) have z-score greater than or equal to -0.2?
true

Quick check: does C=CC[C@@]12N=C(c3ccc(OCCCO)cc3)O[C@@H]1c1ccccc1N(C)C2=O have z-score greater than or equal to -0.2?
true

Quick check: does [N-]=[N+]=Nc1ccccc1[C@H]1OC(c2ccc(OCCCO)cc2)=N[C@@]1(CCS(=O)(=O)c1ccccc1)C(=O)NCC(O)CO (some centres undefined) have z-score greater than or equal to -0.2?
true

Quick check: does CCCC[C@@H]1C[C@H]1[C@@H](NC(=O)c1ccco1)c1ccccc1C(F)(F)F have z-score greater than or equal to -0.2?
false

Quick check: does CC(C)N1C(=O)c2ccccc2[C@](C)(C(=O)NCCN2CCOCC2)[C@@H]1c1ccc(CO)cc1 have z-score greater than or equal to -0.2?
false

###

A collection of molecules and their measured composite z-score
# System: XIP peptide (Xip251-270)
# assay_name: small-molecule binders of XIP peptide, primary screen, biochemical, small-molecule microarray, fluorescence 635/667 nm, 0.5 µg/mL protein (AID 1183)
# test_parameters: small-molecule microarray binding, fluorescence 635 nm; higher = more signal
Write no unit; give the number alone.

molecule: NCCCCCNC(=O)[C@@H]1C[C@@H]2C(=O)N[C@@H](Cc3ccccc3)C(=O)N2[C@@H]1c1ccc(O)cc1
system_tested: XIP peptide (Xip251-270)
parameter_measured: composite z-score
test_value: 0.549
//
molecule: C=C(COC)/C(=C/C[C@@H](OC(C)=O)c1ccc(OCCO)cc1)c1cnc2ccccc2c1
system_tested: XIP peptide (Xip251-270)
parameter_measured: composite z-score
test_value: 0.554
//
molecule: CC(C)C[C@@H]1NC(=O)[C@H](C(C)C)NC(=O)[C@@]23C(=O)N[C@@H](Cc4ccccc4)C2[C@H](C)[C@@]2(C)O[C@H]2C3/C=C/CC/C=C/CNC1=O (stereo not given in full)
system_tested: XIP peptide (Xip251-270)
parameter_measured: composite z-score
test_value: 0.607
//
molecule: C=C[C@H](CO)NS(=O)(=O)c1ccc(Br)cc1
system_tested: XIP peptide (Xip251-270)
parameter_measured: composite z-score
test_value: 0.242

Now consider the entry below.
Tell me its composite z-score given C=CCN1C(=O)[C@@]2(Cc3ccccc31)N=C(c1ccc(OCCCO)cc1)O[C@H]2c1ccccc1 as the entry.
0.801

###

# assay_name: RPMI8226 myeloma cell viability, profiling panel, resazurin fluorescence, basal, 24 h, PK04 Diversity Set (AID 1180);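 further: RPMI8826 multiple myeloma cell line at 5000 cells per well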
# test_parameters: higher = more signal
Binary classification by z-score, with -0.7 as an inclusive lower bound for satisfied; all other cases are not satisfied.

Recorded results for 5 compounds are shown here.
compound: C=CCC(OC(C)=O)[C@@H]1[C@@H](N(Cc2ccc(-c3ccccc3)cc2)C(=O)c2ccc(-c3ccccc3)cc2)c2cc(OCCCO)ccc2N1C(=O)Cc1ccc2ccccc2c1 (some centres not stated)
group_label: satisfied

compound: CC(C)(C)OC(=O)CC[C@]1(C(=O)N2CCOCC2)N=C(c2ccc(OCCCO)cc2)O[C@H]1c1ccccc1N=[N+]=[N-]
group_label: satisfied

compound: C=C[C@@H](COC(=O)OC(C)(C)C)N(Cc1ccc(OC)cc1)S(=O)(=O)c1ccc(Br)cc1
group_label: not satisfied

compound: Cc1ccc([C@@H]2C[C@@H](Sc3ccccc3)[C@H](C(=O)O)CN2S(=O)(=O)c2ccc(C)cc2)cc1
group_label: not satisfied

compound: O=C1C[C@]2(c3ccc([N+](=O)[O-])cc3)C(=O)N(CC(F)(F)F)c3cc(CO)ccc3[C@H]2N1C1CCCCC1
group_label: satisfied

Quick check: does COc1ccc([Si](C)(C)[C@@H]2[C@@H](CC(=O)N3CCC[C@H]3CO)O[C@]3(C(=O)N(c4ccccc4)c4ccccc43)[C@H]2C)cc1 have z-score greater than or equal to -0.7?
satisfied

Quick check: does [N-]=[N+]=NCc1ccccc1C[C@]1(C(=O)N2CCCCC2)N=C(c2ccc(OCCCO)cc2)O[C@H]1c1ccccc1N=[N+]=[N-] have z-score greater than or equal to -0.7?
not satisfied

###

# assay_name: modulators of S6 phosphorylation in cells, primary screen, cell-based, A549, cytoblot, luminescence, serum-stimulated (AID 1158);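 further: serum-stimulated A549 lung adenocarcinoma cells; signal is phosphorylated S6 detected by cytoblot immunostaining with HRP secondary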
# test_parameters: A549 phospho-S6 cytoblot, 5 h, higher = more signal
A collection of compounds and their measured z-score
Write no unit; give the number alone.

Use the examples below as a reference point.
compound: C=C(C)[C@@H]1CC=C(C(O)C2C=CC3C(=O)N(c4ccccc4)C(=O)C3N2Nc2ccccc2)CC1 (stereo not given in full)
parameter_measured: z-score
test_value: -0.798
//
compound: [N-]=[N+]=NCc1ccccc1[C@@H]1OC(c2ccc(OCCCO)cc2)=N[C@]1(Cc1ccccc1)C(N)=O
parameter_measured: z-score
test_value: 0.929
//
compound: C=C(COC)/C(=C/C[C@H](OC(C)=O)c1ccc(CO)o1)c1cc(C(=O)OC)ccc1OC
parameter_measured: z-score
test_value: 0.873
//
compound: CC(C)C(O)C1C=CC2C(=O)N(c3ccccc3)C(=O)C2N1Nc1ccc([N+](=O)[O-])cc1 (stereo not given)
parameter_measured: z-score
test_value: -0.326
//
compound: C=CCN1C(=O)[C@]2(O[C@H](CCn3cc([C@H](O)c4ccccc4)nn3)[C@@H]([Si](C)(C)c3ccc(OC)cc3)[C@@H]2C)c2cc(N3CCC3=O)ccc21
parameter_measured: z-score
test_value: 2.02

Tell me its z-score given CCOC(=O)C[C@H]1[C@H](OC(=O)c2ccc(C(=O)c3ccccc3)cc2)[C@@H](NC(=O)c2ccc3ccccc3c2)c2cc(OCCCO)ccc2N1C(=O)Cc1ccc(OC)cc1 as the entry.
0.742

Tell me its z-score given COCCCNC(=O)[C@@]1(C)c2ccccc2C(=O)N(C(C)C)[C@H]1c1ccc(CO)cc1 as the entry.
-0.504

Tell me its z-score given C=CC1(C(=O)OC)CC=C(C(=O)OC)CC1 (stereo not given) as the entry.
0.674

###

# Test system: Lefty1
# assay_name: Lefty1 binders on small-molecule microarrays, primary screen, biochemical, small-molecule microarray, 635/667 nm fluorescence (AID 1139)
# test_parameters: small-molecule microarray binding, fluorescence 635/667; higher = more signal
parameter_measured: composite z-score
Write no unit; give the number alone.

compound: COc1ccc(C#Cc2ccc3c(c2)[C@]2(C(=O)N3)[C@H](C(=O)NC[C@H](O)c3ccccc3)[C@H]3C(=O)O[C@H](c4ccccc4)[C@H](c4ccccc4)N3[C@@H]2c2ccc(O)cc2)cc1
composite z-score: 0.767
--
compound: CCCC#C[Si](O[C@H](CC)c1cn(Cc2cccc(Cl)c2)nn1)(C(C)C)C(C)C
composite z-score: 0.467
--
compound: O[C@@H](Cc1ccccc1)[C@H]1C2C=CCCC=C2CN1Cc1cccc(Cl)c1 (stereo partly drawn)
composite z-score: 1.41
--
compound: CCOC(=O)C[C@H]1[C@H](OC(=O)c2ccc(C(=O)c3ccccc3)cc2)[C@@H](NC(=O)c2ccccc2)c2cc(OCCCO)ccc2N1C(=O)c1ccc2ccccc2n1
composite z-score: 0.536
--
compound: C=C(/C(=C/C[C@H](OC(C)=O)c1ccc(CO)o1)c1cc(C(=O)OC)ccc1OC)C(C)C
composite z-score: 0.864
--
compound: COC(=O)[C@@]1(Cc2ccc(F)cc2)[C@H]2c3cc(C(=O)N(C)C)n(Cc4ccccc4)c3C[C@H]2CN1C(=O)c1ccccc1
composite z-score: 0.0954

Tell me its composite z-score given Cc1nc2cc(Br)ccc2c(=O)o1 as the entry.
0.328

Tell me its composite z-score given CCOC(=O)C[C@H]1[C@H](OC(=O)c2ccc(-c3ccccc3)cc2)[C@@H](NC(=O)Cc2ccc(OC)cc2)c2cc(OCCCO)ccc2N1C(=O)c1ccccc1 as the entry.
0.299
